- assay info: inhibition of 3D7 malaria parasite growth – strain 3D7 (AID 2306);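 further: 0% = DMSO wells and 100% = chloroquine plus artemisinin control wells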
- measurement setup: P. falciparum 3D7 erythrocytic growth, LDH absorbance, 72 h; at 2 µM; stronger effect = higher value
endpoint label: growth inhibition (%)
Give bare numbers, in %.

Example entries and their recorded answers appear below.
>  <compound>
Cc1cc(N[C@@H](CC(C)C)C(=O)NCCc2ccccc2)nc(NCC2CCCCC2)n1

>  <growth inhibition [%]>
97

$$$$
>  <compound>
CCOc1ccc(-c2nc(NC(=O)Cc3cccc(OC)c3)sc2C)cc1

>  <growth inhibition [%]>
97

$$$$
>  <compound>
OC(CNc1ccnc(Nc2cccc(Cl)c2)n1)c1cccc(F)c1 (stereo not given)

>  <growth inhibition [%]>
90

$$$$
>  <compound>
O=c1[nH]c2ccc(Nc3nccc(NCCc4ccccc4)n3)cc2[nH]1

>  <growth inhibition [%]>
101

$$$$

Count: 6. Required value per item: growth inhibition.
1. NCc1ccc(-c2ccc3c(N)nccc3c2)cc1
2. CCCNc1ccc2nccc(CCN3CCC(NCc4ccc5c(n4)NC(=O)CS5)CC3)c2n1
3. CCN(CC)c1ccc(-c2nc3ncc(Cl)cc3[nH]2)cc1
4. CC(C)(C)c1ccc(C(=O)NC2CCC(CCN3CCc4ccc(S(C)(=O)=O)cc4CC3)CC2)cc1C(F)(F)F (stereo not given)
5. COc1ccc2nccc(N3CCCN(CCNS(=O)(=O)c4ccc5c(c4)NC(=O)CS5)CC3)c2n1
6. Clc1ncnc2scc(-c3ccc(Br)cc3)c12

1: 100; 2: 103; 3: 85; 4: 88; 5: 97; 6: 95
